Please provide measured self-cleavage kobs at 10000 uM GlcN6P for the entries that follow.
B1: glmS ribozyme (parent)
chain: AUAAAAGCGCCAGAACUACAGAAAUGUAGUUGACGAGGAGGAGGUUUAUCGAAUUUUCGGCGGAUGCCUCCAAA

Variants of: B1
protocolDetails: self-cleavage kobs at 10000 uM GlcN6P; higher = faster cleavage; RNA array
testConditions: with glucosamine-6-phosphate
This sample holds only a part of the variants without activity.

Reported self-cleavage kobs at 10000 uM GlcN6P ( AUAAAGGCGCCAGAACUACAGAAAUGUAGUUGACGAGGAGGAGGUUUAUCGAAUUUUCGGCGGAUGCCUACAAA ) = < 1e-05 s⁻¹

Form: variant = AUAAAGCCGCCAGAACUACAGAAAUGUAGUUGACGAGGAGGAGGUUUAUCGAAUUUUCGGCGGAUGCCUCCAAA ; self-cleavage kobs at 10000 uM GlcN6P = < 1e-05 s⁻¹

Notebook: AUAAAAGCGCCAUAACUACAGAAAUGUAGUUGACGAGGAGGAGGUUUAUCGAGUUUUCGGCGAAUGCUUCCAAA , self-cleavage kobs at 10000 uM GlcN6P read as < 1e-05 s⁻¹

For AUAAAAGCGUCAGAACUACAGAAAUGUAGUUGACGAGGAGGAGGUUUAUCGAAUUUUCCGCGGAUGCCUCCAAA the variant record lists self-cleavage kobs at 10000 uM GlcN6P as < 1e-05 s⁻¹

Form: variant = AUAAAAGCGUCAGAACUACAGAAAUGUAGUUGGCGAGGAGGAGGUUUAUCGAAUUUUCGGCGGAUGCCUUCAAA ; self-cleavage kobs at 10000 uM GlcN6P = < 1e-05 s⁻¹

Value of self-cleavage kobs at 10000 uM GlcN6P reported for the variant AUAAAAGCGCCAGAACUACAGAAAUGUAGUUGACGAGGACGAGGUUUAUGGAAUUUUCGGCGGAUGCCUCCAAA is < 1e-05 s⁻¹

Noted for AUAAAAGCGCCAGAACUACAGAAAUGUAGUUUACGAGGAGGAGGUUUAUCGAAUUUUCGGCGAAUGCCUCCAAA : its self-cleavage kobs at 10000 uM GlcN6P reads < 1e-05 s⁻¹

Sample AUAAAAGCGCCAGAACUACAGAAAUGUAGUUGACGAGGAGGAGGUUUAUCGAAUUUUCGGCGCAUGCCUCCAAA ; self-cleavage kobs at 10000 uM GlcN6P observed: < 1e-05 s⁻¹

# variant AUAAAAGCGCCAGAACUACAGAAAUGUACUUGACGCGGAGGAGGUUUAUCGAAUUUUCGGCGGAUGCCUCCAAA ; its self-cleavage kobs at 10000 uM GlcN6P = < 1e-05 s⁻¹
